# ASSAY EXPLANATION: Cytotoxicity against rat PC12 cells assessed as reduction in cell viability at 0.01 to 100 uM after 24 hrs by MTT assay
# Assay type: cell-based
# TEST CONTEXT: pc-12, 24 h
ASSAY METRIC: Activity

COMPOUND	Activity
COc1cccc(/C=C2\CC(C)C/C(=C\c3cccc(OC)c3Cl)C2=O)c1Cl (stereo not given)	Non-toxic
COc1ccc(/C=C2\CNC/C(=C\c3ccc(OC)c(OC)c3Cl)C2=O)c(Cl)c1OC	Non-toxic
COc1ccc(/C=C2\COC/C(=C\c3ccc(OC)c(OC)c3Cl)C2=O)c(Cl)c1OC	Non-toxic
COc1ccc(/C=C2\CC(C)C/C(=C\c3ccc(OC)c(OC)c3Cl)C2=O)c(Cl)c1OC (stereo not given)	Non-toxic

--- query ---
Inquiry: Give a short answer stating reported Activity for `COc1cccc(/C=C2\CN(C)C/C(=C\c3cccc(OC)c3Cl)C2=O)c1Cl` .
Reply text: Non-toxic

* * *

The following compounds each carry a recorded pIC50 for Acetylcholinesterase (Electrophorus electricus).
Numbers only, as −log10 of the molar value.

// input: 3 compounds below; output: pIC50 for each
1. COc1cc(/C=C2\COC/C(=C\c3cc(OC)c(OC)c(OC)c3Br)C2=O)c(Br)c(OC)c1OC
2. COc1ccc(/C=C2\COC/C(=C\c3ccc(OC)c(OC)c3Cl)C2=O)c(Cl)c1OC
3. COc1cc(/C=C2\CC(C)C/C(=C\c3cc(OC)c(OC)c(OC)c3Br)C2=O)c(Br)c(OC)c1OC (stereo not given)

Reply text:
[5.82, 5.14, 5.82]
